Sourced from patent US10160762B2

# system tested: human PDE2A1 (Homo sapiens, UniProt O00408)
# Construct: GST; purchased BPS Bioscience (San Diego, Calif.) 60020; host or cells: insect cells
# Sequence (O00408 1-920 isoform O00408-2): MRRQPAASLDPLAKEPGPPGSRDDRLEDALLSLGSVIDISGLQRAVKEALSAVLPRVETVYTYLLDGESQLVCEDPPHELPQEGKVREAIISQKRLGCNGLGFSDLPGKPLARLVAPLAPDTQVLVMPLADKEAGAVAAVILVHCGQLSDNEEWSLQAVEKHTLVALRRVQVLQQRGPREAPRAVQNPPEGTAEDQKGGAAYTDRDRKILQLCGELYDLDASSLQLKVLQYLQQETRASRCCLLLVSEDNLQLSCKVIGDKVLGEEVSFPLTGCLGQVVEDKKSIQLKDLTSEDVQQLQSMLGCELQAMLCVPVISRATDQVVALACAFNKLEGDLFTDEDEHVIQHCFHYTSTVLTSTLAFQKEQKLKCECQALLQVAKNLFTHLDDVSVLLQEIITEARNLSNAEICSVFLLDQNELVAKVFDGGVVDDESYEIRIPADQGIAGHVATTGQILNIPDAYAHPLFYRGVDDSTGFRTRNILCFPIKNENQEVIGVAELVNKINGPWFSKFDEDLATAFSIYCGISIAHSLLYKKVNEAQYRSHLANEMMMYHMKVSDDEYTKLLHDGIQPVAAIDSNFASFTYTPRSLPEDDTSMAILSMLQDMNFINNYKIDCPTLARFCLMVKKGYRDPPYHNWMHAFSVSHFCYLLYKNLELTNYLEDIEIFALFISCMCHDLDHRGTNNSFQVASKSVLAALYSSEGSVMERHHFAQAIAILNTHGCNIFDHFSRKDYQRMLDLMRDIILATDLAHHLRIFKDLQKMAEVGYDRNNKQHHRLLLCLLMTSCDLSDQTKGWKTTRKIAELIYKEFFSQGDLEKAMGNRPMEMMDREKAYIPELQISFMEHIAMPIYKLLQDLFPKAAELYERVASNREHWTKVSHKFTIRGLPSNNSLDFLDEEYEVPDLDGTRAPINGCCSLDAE
# protocol text: IMAP FP PDE assay, human PDE2A1
# Type: biochemical
# measurement setup: Lab A; read-out: Human PDE2 Ki (nM) Lab A
A collection of compounds and their measured log10(Ki)
Note: values are log10 of Ki expressed in nM.

Below, 8 compounds whose answers are already recorded.
compound="COc1cccc(Cc2nc3c(c(C)nn3C(C)c3ccc(C(F)(F)F)cc3)c(=O)[nH]2)c1 (stereo not drawn)" outcome_measure=log10(Ki) reading=1.34
compound="Cc1nn(C(C)c2ccc(C(F)(F)F)cc2)c2nc(Cc3cccc(O)c3)[nH]c(=O)c12 (stereo not drawn)" outcome_measure=log10(Ki) reading=0.66
compound="Cc1nn(C(C)c2ccc(C(F)(F)F)cc2)c2nc(-c3ccccn3)[nH]c(=O)c12 (stereo not drawn)" outcome_measure=log10(Ki) reading=1.26
compound="Cc1nc2c(c(CO)nn2C(C)c2ccc(C(F)(F)F)c(F)c2)c(=O)[nH]1 (stereo not drawn)" outcome_measure=log10(Ki) reading=0.26
compound="Cc1nc2c(c(CF)nn2C(c2ccc(C(F)(F)F)cc2)C2CC2)c(=O)[nH]1 (stereo not drawn)" outcome_measure=log10(Ki) reading=-0.41
compound="Cc1nn(C(C)c2ccc(C(F)(F)F)cc2)c2nc(-c3cnn(C)c3)[nH]c(=O)c12 (stereo not drawn)" outcome_measure=log10(Ki) reading=1.23
compound="Cc1nc2c(c(CF)nn2C(C)c2ccc(C(F)(F)F)cc2)c(=O)[nH]1 (stereo not drawn)" outcome_measure=log10(Ki) reading=0.43
compound="Cc1nn(C(C)c2ccc(C(F)(F)F)cc2)c2nc(-c3cnc4ccccc4n3)[nH]c(=O)c12 (stereo not drawn)" outcome_measure=log10(Ki) reading=1.67

## Input Entry under review: Cc1nc2c(c(CO)nn2C(C)c2ccc(OC(F)(F)F)cc2)c(=O)[nH]1 (stereo not drawn) . Reported log10(Ki)?
## Output 0.66

## Input Entry under review: Cc1nc2c(c(C)nn2C(C)c2ccc(C(F)(F)F)cc2)c(=O)[nH]1 (single isomer, unassigned) [Example 37] . Reported log10(Ki)?
## Output 1.36

## Input Entry under review: Cc1nc2c(c(CO)nn2C(C)c2ccc(C(F)(F)F)cc2)c(=O)[nH]1 (single isomer, unassigned) [Example 27] . Reported log10(Ki)?
## Output 0.15

## Input Entry under review: Cc1nc2c(c(CO)nn2C(C)c2ccc(C(F)(F)F)cc2)c(=O)[nH]1 (single isomer, unassigned) [Example 26] . Reported log10(Ki)?
## Output 2.11

## Input Entry under review: Cc1nc(-c2nc3c(c(C)nn3C(C)c3ccc(C(F)(F)F)cc3)c(=O)[nH]2)c(C)o1 (stereo not drawn) . Reported log10(Ki)?
## Output 1.08

## Input Entry under review: `Cc1nc2c(c(CO)nn2C(C)(C)c2ccc(C(F)(F)F)cc2)c(=O)[nH]1` . Reported log10(Ki)?
## Output 1.43

====

# system tested: Rhesus PDE2A3 (Macaca mulatta, UniProt B3VTJ2)
# Construct: made in house; host or cells: AD293 cells, transient transfection; supernatant of sonicated lysate
# Sequence (B3VTJ2 1-941): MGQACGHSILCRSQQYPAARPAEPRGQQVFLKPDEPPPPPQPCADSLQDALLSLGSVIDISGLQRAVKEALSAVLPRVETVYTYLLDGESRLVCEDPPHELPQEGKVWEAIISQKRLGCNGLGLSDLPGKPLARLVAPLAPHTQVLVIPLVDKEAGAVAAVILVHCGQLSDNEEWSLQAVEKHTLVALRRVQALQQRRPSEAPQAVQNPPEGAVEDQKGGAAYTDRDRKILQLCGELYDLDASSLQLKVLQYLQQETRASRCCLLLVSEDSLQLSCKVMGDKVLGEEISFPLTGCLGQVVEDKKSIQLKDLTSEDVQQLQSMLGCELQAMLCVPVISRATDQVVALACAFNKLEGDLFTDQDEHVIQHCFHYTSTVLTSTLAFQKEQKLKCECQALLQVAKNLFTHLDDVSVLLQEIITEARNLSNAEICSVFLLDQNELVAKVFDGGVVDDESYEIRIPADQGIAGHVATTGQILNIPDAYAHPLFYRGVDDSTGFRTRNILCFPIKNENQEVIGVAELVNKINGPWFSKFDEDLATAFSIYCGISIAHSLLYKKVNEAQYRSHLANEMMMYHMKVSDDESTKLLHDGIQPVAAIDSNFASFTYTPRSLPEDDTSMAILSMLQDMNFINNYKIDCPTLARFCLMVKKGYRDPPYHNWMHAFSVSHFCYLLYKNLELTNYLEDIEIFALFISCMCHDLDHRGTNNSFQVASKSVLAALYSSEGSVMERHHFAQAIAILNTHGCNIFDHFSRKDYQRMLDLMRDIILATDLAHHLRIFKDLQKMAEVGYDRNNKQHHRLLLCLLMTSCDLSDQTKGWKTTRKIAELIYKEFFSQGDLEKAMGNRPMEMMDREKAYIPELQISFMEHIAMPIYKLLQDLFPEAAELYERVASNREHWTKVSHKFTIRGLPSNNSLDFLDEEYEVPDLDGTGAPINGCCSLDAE
# protocol text: PDE2 fluorescence polarization (IMAP FP) inhibition assay, rhesus PDE2A3
# Format: biochemical, rhesus macaque
# measurement setup: Lab B; read-out: Rhesus PDE2 Ki (nM) Lab B
A collection of compounds and their measured Ki
Number in nM, nothing else.

compound="Cc1nc2c(c(CC(F)(F)F)nn2C(c2ccc(C(F)(F)F)cc2)C(C)(C)C)c(=O)[nH]1 (single isomer, unassigned) [Example 57]" system_tested="Rhesus PDE2A3 (Macaca mulatta, UniProt B3VTJ2)" unit_spec=nM reading=69
compound="Cc1nn(C(C)c2ccc(C(F)(F)F)cc2)c2nc(C3CCOC3)[nH]c(=O)c12 (stereo not shown)" system_tested="Rhesus PDE2A3 (Macaca mulatta, UniProt B3VTJ2)" unit_spec=nM reading=531
compound="Cc1nn(C(C)c2ccc(C(F)(F)F)cc2)c2nc(CCC(=O)N(C)C)[nH]c(=O)c12 (stereo not shown)" system_tested="Rhesus PDE2A3 (Macaca mulatta, UniProt B3VTJ2)" unit_spec=nM reading=416

## Input Entry under review: Cc1nc2c(c(CF)nn2C(C)c2ccc(C(C)(C)C)cc2)c(=O)[nH]1 (single isomer, unassigned) [Example 214] . Reported Ki?
## Output 318

## Input Entry under review: Cc1nc2c(c(CN)nn2C(C)c2ccc(C(F)(F)F)cc2)c(=O)[nH]1 (single isomer, unassigned) [Example 275] . Reported Ki?
## Output 987

## Input Entry under review: `Cc1nc2c(c(CO)nn2C2(c3ccc(C(F)(F)F)cc3)CCC2)c(=O)[nH]1` . Reported Ki?
## Output 6.7

## Input Entry under review: Cc1nc2c(c(CF)nn2C(c2ccc(C(F)(F)F)cc2)C(C)C)c(=O)[nH]1 (single isomer, unassigned) [Example 213] . Reported Ki?
## Output 0.15

## Input Entry under review: Cc1nc2c(c(CF)nn2C(c2ccc(C(F)(F)F)cc2)C2(C)CC2)c(=O)[nH]1 (single isomer, unassigned) . Reported Ki?
## Output 149

## Input Entry under review: Cc1nc2c(c(CO)nn2C(c2ccc(OC(F)(F)F)cc2)C(C)C)c(=O)[nH]1 (single isomer, unassigned) [Example 84] . Reported Ki?
## Output 16

## Input Entry under review: `Cc1nc2c(c(CO)nn2[C@@H](C)c2ccc(C(C)(C)C)cc2)c(=O)[nH]1` . Reported Ki?
## Output 0.96

## Input Entry under review: Cc1ccc(C(C)n2nc(CO)c3c(=O)[nH]c(C)nc32)cc1 (stereo not shown) . Reported Ki?
## Output 30

## Input Entry under review: Cc1nc2c(c(C=O)nn2C(C)c2ccc(C(F)(F)F)cc2)c(=O)[nH]1 (stereo not shown) . Reported Ki?
## Output 53

## Input Entry under review: Cc1nc2c(c(CF)nn2C(c2ccc(OC(F)(F)F)cc2)C2CC2)c(=O)[nH]1 (single isomer, unassigned) . Reported Ki?
## Output 0.94

## Input Entry under review: Cc1nc2c(c(CO)nn2C(c2ccc(C(C)(C)C)cc2)C2CC2)c(=O)[nH]1 (single isomer, unassigned) [Example 88] . Reported Ki?
## Output 51

## Input Entry under review: Cc1nc2c(c(CF)nn2C(C)c2ccc(S(F)(F)(F)(F)F)cc2)c(=O)[nH]1 (single isomer, unassigned) [Example 200] . Reported Ki?
## Output 2.4

## Input Entry under review: Cc1nc2c(c(CO)nn2C(c2ccc(OC(F)(F)F)cc2)C2CC2)c(=O)[nH]1 (single isomer, unassigned) [Example 95] . Reported Ki?
## Output 2.1

## Input Entry under review: `Cc1nc2c(c(CO)nn2[C@@H](C)c2ccc(OC(F)(F)F)cc2)c(=O)[nH]1` . Reported Ki?
## Output 4.5

## Input Entry under review: CCC(c1ccc(C(F)(F)F)cc1)n1nc(CO)c2c(=O)[nH]c(C)nc21 (single isomer, unassigned) . Reported Ki?
## Output 1.5

## Input Entry under review: Cc1nc2c(c(CO)nn2C(c2ccc(C(F)(F)F)cc2)C2(C)CC2)c(=O)[nH]1 (single isomer, unassigned) [Example 24] . Reported Ki?
## Output 1.9

## Input Entry under review: Cc1nc2c(c(CO)nn2C(c2ccc(C(F)(F)F)cc2)C(C)(C)C)c(=O)[nH]1 (single isomer, unassigned) [Example 82] . Reported Ki?
## Output 289

## Input Entry under review: Cc1nc2c(c(CO)nn2C(c2ccc(C(F)(F)F)cc2)C(C)C)c(=O)[nH]1 (stereo not shown) . Reported Ki?
## Output 1

## Input Entry under review: Cc1nc2c(c(CC#N)nn2C(C)c2ccc(C(F)(F)F)cc2)c(=O)[nH]1 (single isomer, unassigned) [Example 281] . Reported Ki?
## Output 1.9

## Input Entry under review: Cc1nc2c(c(CO)nn2C(c2ccc(OC(F)(F)F)c(F)c2)C2CC2)c(=O)[nH]1 (single isomer, unassigned) [Example 93] . Reported Ki?
## Output 1.9

## Input Entry under review: `Cc1nc2c(c(CO)nn2[C@@H](c2ccc(C(C)(C)C)cc2)C(C)C)c(=O)[nH]1` . Reported Ki?
## Output 0.3

## Input Entry under review: Cc1nc2c(c(CO)nn2C(C)c2ccc(SC(F)(F)F)cc2)c(=O)[nH]1 (single isomer, unassigned) . Reported Ki?
## Output 1.7

## Input Entry under review: COc1cccc(Cc2nc3c(c(CF)nn3C(C)c3ccc(C(F)(F)F)cc3)c(=O)[nH]2)c1 (single isomer, unassigned) [Example 220] . Reported Ki?
## Output 189

## Input Entry under review: Cc1nc2c(c(CO)nn2C(c2ccc(C(F)(F)F)cc2)C(F)(F)F)c(=O)[nH]1 (stereo not shown) . Reported Ki?
## Output 3.5

## Input Entry under review: `Cc1nc2c(c(CO)nn2C(C)(C)c2ccc(C(F)(F)F)cc2)c(=O)[nH]1` . Reported Ki?
## Output 56
